# reported melting point; entries follow

O=C(NC1c2ccccc2-c2c(-c3nc4cnccc4[nH]3)cccc21)c1cccc2ncccc12 (racemic) [Example 14]    254 to 258 °C (dec.)
Cc1cc(C(=O)NC2c3ccccc3-c3c(-c4nc5ccncc5[nH]4)cccc32)cc(Cl)n1 (racemic) [Example 123]    250 °C

Request the reported melting point associated with O=C(NC1c2ccccc2-c2c(-c3nc4ccncc4[nH]3)cccc21)c1cccc2[nH]ncc12 (racemic) [Example 111] 230 to 235 °C

Look up melting point: COc1ccc(C(=O)NC2c3ccccc3-c3c(-c4nc5ccncc5[nH]4)cccc32)cc1 (racemic) [Example 127] 194 °C

Which measured melting point value corresponds to NC1c2ccccc2-c2c(-c3nc4ccc(F)cc4[nH]3)cccc21 (racemic) [Example 71] ? 170 to 172 °C

Item under review: Cn1cc(C(=O)NC2c3ccccc3-c3c(-c4nc5ccncc5[nH]4)cccc32)c2cccnc21 (racemic) [Example 101] . Reported melting point? 204 °C (dec.)

What value of melting point has been recorded for this entry: O=C1c2ccccc2-c2c1cccc2-c1nc2cnccc2[nH]1 [Example 1] 236 to 238 °C

Value lookup for melting point; key = O=C(NC1c2ccccc2-c2c(-c3nc4ccncc4[nH]3)cccc21)c1c[nH]c2ncccc12 (racemic) [Example 99] 225 °C (dec.)

====

target: Hsp82 (Saccharomyces cerevisiae); assay: PK/LDH enzyme coupling test of the ATPase activity of Hsp82 (NADH decrease at 340 nm); format: biochemical; details: Hsp82 ATPase IC50 μM, 1 μM Hsp82, 250 μM ATP, 37° C., pyruvate kinase/lactate dehydrogenase coupling
Structures can show the parent of a compound that is named as a salt.
Readout name: IC50

Lab request: please report IC50 under test system Hsp82 (Saccharomyces cerevisiae) for NC(=O)NC1c2ccccc2-c2c(-c3nc4ccncc4[nH]3)cccc21 (racemic) [Example 28, trifluoroacetate] 10 to 100 µM

====

biological target: Hsp82 (Saccharomyces cerevisiae, UniProt P02829); assay: PK/LDH enzyme coupling test of the ATPase activity of Hsp82 (NADH decrease at 340 nm); format: biochemical; conditions: 1 μM Hsp82, 250 μM ATP, 37° C., pyruvate kinase/lactate dehydrogenase coupling, read-out: Hsp82 ATPase IC50
Sequence (P02829 whole entry): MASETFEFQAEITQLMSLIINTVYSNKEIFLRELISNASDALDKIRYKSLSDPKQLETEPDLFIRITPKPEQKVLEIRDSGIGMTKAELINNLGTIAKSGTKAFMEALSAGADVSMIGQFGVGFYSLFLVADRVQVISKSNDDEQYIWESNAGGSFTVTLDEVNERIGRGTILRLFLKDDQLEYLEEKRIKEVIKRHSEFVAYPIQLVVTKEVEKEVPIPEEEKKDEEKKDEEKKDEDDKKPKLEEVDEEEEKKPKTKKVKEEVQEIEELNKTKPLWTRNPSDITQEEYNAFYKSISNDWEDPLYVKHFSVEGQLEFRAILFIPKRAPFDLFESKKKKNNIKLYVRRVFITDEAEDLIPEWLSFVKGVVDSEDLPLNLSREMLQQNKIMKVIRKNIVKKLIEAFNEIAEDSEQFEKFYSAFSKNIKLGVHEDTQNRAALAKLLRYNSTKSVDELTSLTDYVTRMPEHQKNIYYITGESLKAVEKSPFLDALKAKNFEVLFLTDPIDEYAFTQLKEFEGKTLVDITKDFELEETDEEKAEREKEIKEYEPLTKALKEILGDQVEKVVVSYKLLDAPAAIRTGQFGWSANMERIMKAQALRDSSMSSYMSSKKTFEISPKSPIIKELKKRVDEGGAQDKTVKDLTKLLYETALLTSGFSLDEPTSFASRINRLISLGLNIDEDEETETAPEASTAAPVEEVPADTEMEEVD
Readout name: IC50

See these solved cases before continuing.
O=C1CNC(=O)N1C1c2ccccc2-c2c(-c3nc4ccncc4[nH]3)cccc21 (racemic)    10 to 100 µM
S=C(NC1c2ccccc2-c2c(-c3nc4cnccc4[nH]3)cccc21)c1cccc2ncccc12 (racemic)    < 1 µM
CCc1cc(C(=O)NC2c3ccccc3-c3c(-c4nc5ccncc5[nH]4)cccc32)ccn1 (racemic)    < 1 µM
O=C(NCc1ccncc1)C1c2ccccc2-c2c(-c3nc4cnccc4[nH]3)cccc21 (racemic)    10 to 100 µM
NC(=O)NN=C1c2ccccc2-c2c1cccc2-c1nc2ccncc2[nH]1    10 to 100 µM

Item under review: O=C(NC1c2ccccc2-c2c(-c3nc4ccncc4[nH]3)cccc21)c1cccnc1 (racemic) . Reported IC50? 1 to 10 µM

Consider the compound shown here: O=C(O)C1c2ccccc2-c2c(-c3nc4cnccc4[nH]3)cccc21 (racemic) What is its recorded IC50? 10 to 100 µM

====

Below, each entry is listed with its recorded IC50.
Biological target: Hsp82 (Saccharomyces cerevisiae)
Assay: PK/LDH enzyme coupling test of the ATPase activity of Hsp82 (NADH decrease at 340 nm)
Assay type: biochemical
Details: 1 μM Hsp82, 250 μM ATP, 37° C., pyruvate kinase/lactate dehydrogenase coupling, read-out: Hsp82 ATPase IC50
Excerpt: The formation of ADP due to the ATPase activity of Hsp82 was utilized for developing another method of evaluating the enzymatic activity of this enzyme by application of an enzyme coupling system employing pyruvate kinase (PK) and lactate dehydrogenase (LDH). […] In this case, the decrease in the concentration of NADH, measured by the decrease in absorbance at wavelength of 340 nm, is proportional to the concentration of ADP produced by HSP82. […]

Sample answers from the record:
CC(=O)Nc1cc(C(=O)NC2c3ccccc3-c3c(-c4nc5cnccc5[nH]4)cccc32)ccn1 (racemic)    < 1 µM
CC(C)(C)OC(=O)N[C@@H](CC(N)=O)C(=O)NC1c2ccccc2-c2c(-c3nc4cnccc4[nH]3)cccc21 (some centres unmarked)    1 to 10 µM
O=C(NC1c2ccccc2-c2c(-c3nc4ccncc4[nH]3)cccc21)c1cccc2c1C=CCO2 (racemic)    1 to 10 µM
Nc1cnccc1C(=O)NC1c2ccccc2-c2c(-c3nc4ccncc4[nH]3)cccc21 (racemic)    < 1 µM
CC(C)(C)OC(=O)N[C@H](CC(=O)NC1c2ccccc2-c2c(-c3nc4cnccc4[nH]3)cccc21)C(N)=O (some centres unmarked)    1 to 10 µM
Nc1nc(CC(=O)NC2c3ccccc3-c3c(-c4nc5cnccc5[nH]4)cccc32)cs1 (racemic)    1 to 10 µM

Look at this molecule and give its reported IC50. O=C(N[C@H]1c2ccccc2-c2c(-c3nc4ccncc4[nH]3)cccc21)c1cccc2ncccc12 (single isomer, unassigned) [Example 14B] 10 to 100 µM

Given O=C(NC1c2ccccc2-c2c(-c3nc4cnccc4[nH]3)cccc21)c1cccc2[nH]ccc12 (racemic) , state its recorded IC50. 1 to 10 µM

Sample O=C(NC1c2ccccc2-c2c(-c3nc4ccncc4[nH]3)cccc21)c1ccnc(Br)c1 (racemic) — what was its IC50? < 1 µM
